Would you kindly list growth for each of these compounds?
Tested on: SF-539 CNS
Assay: NCI-60 one-dose screen, 48 h (100 = growth as untreated, 0 = no growth, -100 = all killed)
Conditions: 10 µM unless noted
About 83,000 compounds went through this panel and 20% of them were active in at least one assay; those are over-represented in the sample as a whole.
Use % as the unit, but write only the number.

Exam item: Give SF-539 CNS growth for COc1cc(N2C(=O)[C@H](c3ccccc3)C2c2ccc(SC)cc2)cc(OC)c1OC (stereo not given in full)
Marked response: 8.41

Exam item: Same thing, different compound: CC1O[C@@H]2C[C@@](O)([C@H]1O)n1c3ccccc3c3c4c(c5c6ccccc6n2c5c31)C(=O)NC4=O (stereo not given in full)
Marked response: 33.2

Exam item: Could you do the same for COc1cc(C#Cc2ccc(=O)oc2C#Cc2ccccc2)cc(OC)c1OC , please?
Marked response: 110

Exam item: Lookup CC(C(=O)O)n1c(O)c(C=Nc2cccnc2)sc1=S (stereo not given)
Marked response: 98.1

Exam item: Next up: COc1ccc(/C(C)=C(\c2ccc(OCCN3CCCCCC3)cc2)c2ccc(OC(=O)c3ccccc3)cc2)cc1
Marked response: 45.2

Exam item: Further, for Nc1c(C(=O)Nc2ccncc2)sc2nc3c(cc12)CCCCC3 ?
Marked response: 73.2

Exam item: Same read-out for CC(C)(CO)N(CCO)CCO ?
Marked response: 97.4

Exam item: Try the compound O=C1c2cccnc2C(=O)c2c1c(C(=O)OCCCN1CCCCC1)c1ccccn21
Marked response: -9.46

Exam item: Thanks! And Cc1nc2sc(C(=O)Nc3cccc(Cl)c3)c(N)c2cc1C(O)c1ccccc1 (stereo not given) ?
Marked response: -3.45

Exam item: # repeat for Cc1cc2nc3c4ccccc4n(CCN(C)C)c3nc2cc1C
Marked response: 12.2
